Assay Method Text: Plasma pharmacokinetics of MB076 after single IV dose in thigh-infected mice
Format: in vivo, mouse
Stated Conditions: mouse; 50 mg/kg single IV, plasma, thigh-infected mice; read-out: Vss

{"Compound": "Nc1nnc(SCC(=O)N[C@@H](Cn2cc(C(=O)O)nn2)B(O)O)s1 [MB076]", "Unit Descriptor": "L/kg", "Vd": 0.35}

----------
Assay Method Text: Plasma pharmacokinetics of MB076 after single IV dose in thigh-infected mice
Type: in vivo, mouse
Stated Conditions: mouse; 25 mg/kg single IV, plasma, thigh-infected mice
Observation Type: clearance (mL/min/kg)

{"Structure": "Nc1nnc(SCC(=O)N[C@@H](Cn2cc(C(=O)O)nn2)B(O)O)s1", "Experimental Result": 23.4}

Each recorded value in this set is attributed to paper PMC11881554.
